Source listed as ChEMBL document CHEMBL1201862.

Test system: UACC-62
assay-remarks: NCI tumour cell line growth inhibition, 48 h
Calls of active or inactive are those of the source. Rule as the data show it: active = GI50 up to about 1.1 µM and inactive = higher.
As shown below, each of these compounds has a reported GI50 value.

>>> endpoint_result("NS(=O)(=O)c1ccc(NNc2c3ccccc3nc3c(C(=O)Nc4ccc(S(=O)(=O)Nc5ncccn5)cc4)cccc23)cc1")
"> 25 µM (inactive)"
>>> endpoint_result("CSc1ccc(-c2cc(-c3nc4ccccc4[nH]3)no2)cc1")
"16.4 µM (inactive)"
>>> endpoint_result("CN(C)CCNc1ccc(CO)c2sc3ccc(O)cc3c(=O)c12")
"1.34 µM (inactive)"
>>> endpoint_result("O=[N+]([O-])c1ccc(C2CC(c3ccc(NCc4nc5ccccc5[nH]4)cc3)=NO2)cc1 (stereo not given)")
"70.3 µM (inactive)"

# compound "NS(=O)(=O)c1cc(Br)c(/N=N\c2ccc(O)c3ncccc23)c(Br)c1" ; its GI50 = 21.8 µM (inactive)

---

As shown below, each of these compounds has a reported GI50 value.
Test system: UO-31
assay-remarks: NCI tumour cell line growth inhibition, 48 h
Activity calls are given as the source filed them. No stated cut-off is given here; in the data, active = GI50 up to about 1.1 µM and inactive = higher.

>>> endpoint_result("CCOC(=O)[C@@]12C(C)=CC(=O)O[C@]1(C)C[C@H]2C#N")
"> 100 µM (inactive)"
>>> endpoint_result("CC(C)(C)OC(=O)CN1CCNCCN(CC(=O)OC(C)(C)C)CCNCC1")
"> 100 µM (inactive)"
>>> endpoint_result("CC(C)/C=N\\n1c(N)c(C#N)c(C#N)c1C(C)C")
"15.8 µM (inactive)"
>>> endpoint_result("COC(=O)C1=C(O)C(C(=O)OC)[C@@]2(O)[C@@H](C(=O)OC)C(c3ccc(OC(=O)/C(=C/c4ccccc4)c4ccccc4)cc3)C[C@@H]1[C@@H]2C(=O)OC (stereo not given in full)")
"10.9 µM (inactive)"
>>> endpoint_result("O=S(=O)(c1ccccc1)C1CN2OC1(S(=O)(=O)c1ccccc1)CC2c1ccc(Br)cc1 (stereo not given)")
"37.9 µM (inactive)"
>>> endpoint_result("Cc1n[nH]c(=O)n1/N=C/c1cccc(Cl)c1")
"> 100 µM (inactive)"

Item N#Cc1cccc(C2ON=C(c3ccc([N+](=O)[O-])cc3)N2C23CC4CC(CC(C4)C2)C3)c1 (stereo not given) was tested on UO-31; the reported GI50 is 24.1 µM (inactive)

Item CCN1C(=O)N2C(OC)c3ccccc3C(Br)C2(OC)C1=O (stereo not given) was tested on UO-31; the reported GI50 is > 100 µM (inactive)

Item Cn1c(=O)c2c(nc3n2C(CCl)CO3)n(C)c1=O (stereo not given) was tested on UO-31; the reported GI50 is > 100 µM (inactive)

Item "C/C(=N\NC(=O)C(N)=O)c1c(O)cc(C)oc1=O" was tested on UO-31; the reported GI50 is > 100 µM (inactive)

---

System: OVCAR-4
assay-remarks: NCI tumour cell line growth inhibition, 48 h
Activity calls are given as the source filed them. Rule as the data show it: active = GI50 up to about 1.1 µM and inactive = higher.
As shown below, each of these compounds has a reported GI50 value.

Reference set (4 entries):
>>> endpoint_result("N#Cc1cccc(C2ON=C(c3ccc([N+](=O)[O-])cc3)N2C23CC4CC(CC(C4)C2)C3)c1 (centres undefined)")
"26.9 µM (inactive)"
>>> endpoint_result("NS(=O)(=O)c1ccc(NNc2c3ccccc3nc3c(C(=O)Nc4ccc(S(=O)(=O)Nc5ncccn5)cc4)cccc23)cc1")
"> 25 µM (inactive)"
>>> endpoint_result("Cn1/c(=N\\N=C2\\C=C3CCCCC3(C)CC2)sc2ccccc21 (centres undefined)")
"> 100 µM (inactive)"
>>> endpoint_result("CCC[N+](C)(C)CCCNC(=O)c1c(O)c2ccccc2[nH]c1=O")
"> 100 µM (inactive)"

Please turn your attention to the following entry.
# compound CCC(C)[C@@H](NC1=C(Cl)C(=O)c2c(O)ccc(O)c2C1=O)C(=O)OC (some centres undefined) ; its GI50 = 2.84 µM (inactive)
